Note to self: values exactly at 2 are True. So logP at or above 2 is True, below is False.

>>> group_label("O=C(Cc1ccccc1)NCCNCC(O)COCCCc1ccccc1 (stereo not given)")
"False"
>>> group_label("CC(C)NCC(O)COCC=Cc1ccccc1 (stereo not given)")
"True"
>>> group_label("CC(C)C(=O)NCCNCC(O)COc1ccccc1 (stereo not given)")
"False"
>>> group_label("CC(C)C(=O)NCCNCC(O)COCC=Cc1ccccc1 (stereo not given)")
"False"

**Q:** Determine whether this compound has logP no lower than 2: CC(C)(C)NCC(O)COCCc1ccccc1 (stereo not given)
**A:** True
